Exercise: for every item that follows, state its recorded pKi.
targetOrSystem: Scytalone dehydratase (Magnaporthe oryzae (strain 70-15 / FGSC 8958) (Rice blast fungus)(Pyricularia oryzae))
Sequence (P56221 whole entry): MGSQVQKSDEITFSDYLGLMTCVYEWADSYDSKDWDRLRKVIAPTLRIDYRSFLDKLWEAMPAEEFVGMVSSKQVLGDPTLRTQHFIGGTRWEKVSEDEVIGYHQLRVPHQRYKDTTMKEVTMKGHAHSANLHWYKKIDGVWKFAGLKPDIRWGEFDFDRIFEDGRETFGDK
experimentDescription: The inhibitory activity (Ki) of the deprotonated compound was measured against scytalone dehydratase at pH 9.8
Design: species or system Pyricularia grisea
Numbers only, as −log10 of the molar value.

c1ccc(CCCNc2ncnc3ccccc23)cc1    7.72
O=C(NCCCc1ccccc1)c1ccccc1O    6.64
c1ccc(CCCNc2nccc3ccccc23)cc1    5.64

// below: pKi requested for another compound
Ask: Consider the compound "c1ccc(CCCNc2ccnc3ccccc23)cc1" . State its measured pKi.
Result: 4.35
